ASSAYED_SYSTEM: Pro-neuregulin-1, membrane-bound isoform (Homo sapiens) (UniProt Q02297)
Sequence (Q02297 whole entry, looked up, canonical isoform): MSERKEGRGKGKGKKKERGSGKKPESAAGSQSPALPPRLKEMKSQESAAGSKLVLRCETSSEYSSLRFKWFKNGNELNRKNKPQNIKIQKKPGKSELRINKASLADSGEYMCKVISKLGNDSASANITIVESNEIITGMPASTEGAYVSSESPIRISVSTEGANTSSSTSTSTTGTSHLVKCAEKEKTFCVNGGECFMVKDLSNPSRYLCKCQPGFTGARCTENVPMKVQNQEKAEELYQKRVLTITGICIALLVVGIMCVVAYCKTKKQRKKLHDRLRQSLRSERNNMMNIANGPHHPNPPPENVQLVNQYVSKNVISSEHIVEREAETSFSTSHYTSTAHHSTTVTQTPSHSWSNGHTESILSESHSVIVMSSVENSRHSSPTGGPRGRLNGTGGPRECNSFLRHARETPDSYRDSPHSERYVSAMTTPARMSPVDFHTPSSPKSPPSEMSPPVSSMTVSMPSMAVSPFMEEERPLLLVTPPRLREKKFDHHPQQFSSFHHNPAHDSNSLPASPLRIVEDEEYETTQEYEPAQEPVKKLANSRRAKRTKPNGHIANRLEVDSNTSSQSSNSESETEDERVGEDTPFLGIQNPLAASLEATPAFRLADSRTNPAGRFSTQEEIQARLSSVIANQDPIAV
ASSAY_DETAILS: small molecules binding neuregulin-1 protein – biochemical, small-molecule microarray, fluorescence 635/667, psychiatric disease protein project, primary screen (AID 1075);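 also: score combines 667 nm spot fluorescence with signal to noise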
RUN_CONDITIONS: NRG1 binding, 635 nm fluorescence, higher = more signal
RESULT_TYPE: composite z-score
Form rule: numeric answer, no unit written next to it.

compound=COCCCNC(=O)[C@@]1(Cc2ccccc2I)c2ccccc2C(=O)N(Cc2ccccc2Cl)[C@H]1c1ccc(CO)cc1 assayed_system="Pro-neuregulin-1, membrane-bound isoform (Homo sapiens) (UniProt Q02297)" result_type="composite z-score" reading=1.3

Ask: For the compound C=CC[C@@]1(C(=O)NCC(O)CO)N=C(c2ccc(OCCCO)cc2)O[C@@H]1c1ccccc1 (stereo partly specified) , give its measured composite z-score value.
Result: 1.64

Ask: Let me know recorded composite z-score for "CC(C)(C)OC(=O)CC[C@]1(C(=O)O)COC(c2ccc(OCCCO)cc2)=N1" , thanks.
Result: 1.98

Ask: For the compound CC(C)c1ccc(NN2C(C(O)c3cccs3)C=CC3C(=O)N(c4ccccc4)C(=O)C32)cc1 (stereo unspecified) , report composite z-score.
Result: 1.54

Ask: Answer with reported composite z-score of "COCC(=C=CC[C@@H](O)c1ccccc1OCCO)C[C@@H](O)c1ccccn1"
Result: 1.21

Ask: Give the reported value of composite z-score for this record: "CCOC(=O)C1=CC[C@@H](c2cccc(Br)c2)N(S(=O)(=O)c2ccc(C)cc2)[C@H]1c1ccc([N+](=O)[O-])cc1"
Result: 0.674

====

ASSAY_DETAILS: JC-1 mitochondrial signal, unstimulated adipocytes – cell-based, JC-1 fluorescence, 3T3-L1 adipocytes, 24 h, 100 nL compound, profiling panel (AID 1168); also: test concentration not given here
RUN_CONDITIONS: JC-1 mitochondrial fluorescence, higher = more signal, called active from +8 up or from −8 down
Each entry below lists one item and its recorded z-score value.
The reply should be a number, written without any unit.

Use the examples below as a reference point.
compound=COCCOC(=O)N1C(=O)[C@@]2(c3cc(C#CC4(O)CCCCCC4)ccc31)[C@H](C(=O)N1CCN(c3ncccn3)CC1)[C@H]1C(=O)O[C@H](c3ccccc3)[C@H](c3ccccc3)N1[C@@H]2c1ccc(O)cc1 reading=0.799
compound="O=C1OCCC=C[C@H]2OC34C=CCN(Cn5nnc6ccccc65)C(=O)[C@H]3N(CCCCCO)C(=O)[C@@H]4C12 (stereo partly drawn)" reading=0.117
compound=COC(=O)[C@@]1(Cc2ccc(OC)cc2)[C@H]2c3cc(C(=O)N(C)C)n(Cc4cc(C)n(C)n4)c3C[C@H]2CN1C(=O)c1ccccc1 reading=-0.938
compound="C=CCC(OC(C)=O)[C@@H]1[C@@H](N(Cc2ccc(-c3ccccc3)cc2)C(=O)Cc2ccc(OC)cc2)c2cc(OCCCO)ccc2N1C(=O)c1ccc(-c2ccccc2)cc1 (stereo partly drawn)" reading=0.269
compound="CC(C)(C)N1CC=CC23O[C@@H]4C=CCCOC(=O)C4[C@H]2C(=O)N(CCCO)[C@@H]3C1=O (stereo partly drawn)" reading=0.514
compound=COC(=O)[C@@]1(Cc2ccc(OC)cc2)[C@H]2c3cc(C(=O)N(C)C)n(CCF)c3C[C@H]2CN1C(=O)c1ccccc1 reading=0.454

Ask: Please supply the value of reported z-score for the item "CCCC[C@@H](O)C1=C(COc2ccccc2)Cn2c(=O)n(-c3ccccc3)c(=O)n2[C@H]1CO"
Result: 0.334

Ask: Consider the compound "COc1ccccc1CN1C(=O)c2ccccc2[C@@]2(Cc3ccccc3N(C3CC3)C2=O)[C@@H]1c1ccc(CO)cc1" . State its measured z-score.
Result: -0.607
